- Test system: ZIKV strain PLCal_ZV
- assay-explanation: Plaque reduction inhibition assay, ZIKV PLCal_ZV in Vero E6 cells
- Type: cell-based
- test-parameters: Zika virus, Vero C1008, read-out: IC50 PLCal_ZV
pIC50: −log10 of the molar value.

compound	pIC50
Cc1cc2c(C(C)C)c(O)c(O)c(C=O)c2c(O)c1-c1c(C)cc2c(C(C)C)c(O)c(O)c(C=O)c2c1O [Gossypol, gossypol]	5.70

----------
- assayed-target: ZIKV full-length E protein (Zika virus, UniProt A0A024B7W1)
- Sequence (A0A024B7W1 291-794): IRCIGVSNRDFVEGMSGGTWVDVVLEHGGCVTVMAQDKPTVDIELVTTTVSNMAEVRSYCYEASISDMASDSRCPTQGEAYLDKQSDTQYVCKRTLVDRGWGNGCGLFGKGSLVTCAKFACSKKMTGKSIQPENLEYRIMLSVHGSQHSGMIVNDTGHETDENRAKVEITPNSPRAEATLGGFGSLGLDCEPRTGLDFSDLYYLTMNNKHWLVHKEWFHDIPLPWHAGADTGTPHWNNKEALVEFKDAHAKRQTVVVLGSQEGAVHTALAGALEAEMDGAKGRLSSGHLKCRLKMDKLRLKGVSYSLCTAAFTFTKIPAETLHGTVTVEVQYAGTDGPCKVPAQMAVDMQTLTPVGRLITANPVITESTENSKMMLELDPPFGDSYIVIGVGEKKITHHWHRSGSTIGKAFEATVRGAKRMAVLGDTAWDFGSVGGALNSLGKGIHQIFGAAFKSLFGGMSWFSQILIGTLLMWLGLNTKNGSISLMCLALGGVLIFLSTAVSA
- Assay type: binding
- test-parameters: ELISA
reported-endpoint: binding to ZIKV full-length E protein (in words)

molecule	measured-result
C[C@H]1[C@H]2CC[C@H]3[C@@H]4CC=C5C[C@@H](N(C)C)CC[C@]5(C)[C@H]4CC[C@]23CN1C [Conessine, conessine]	did not bind
C[C@@H]1CC[C@@]2(OC1)O[C@H]1[C@@H](O)[C@H]3[C@@H]4CC[C@H]5C[C@@H](O[C@@H]6O[C@H](CO)[C@H](O[C@@H]7O[C@H](CO)[C@@H](O)[C@H](O[C@@H]8OC[C@@H](O)[C@H](O)[C@H]8O)[C@H]7O[C@@H]7O[C@H](CO)[C@H](O)[C@H](O[C@@H]8O[C@H](CO)[C@@H](O)[C@H](O)[C@H]8O)[C@H]7O)[C@H](O)[C@H]6O)[C@H](O)C[C@]5(C)[C@H]4CC[C@]3(C)[C@H]1[C@@H]2C [Digitonin, digitonin]	did not bind
CC(C)C[C@H](NC(=O)[C@H](Cc1ccccc1)NC(=O)c1cnccn1)B(O)O [Bortezomib, bortezomib, reference compound]	did not bind
